Target: Histamine H3 receptor (Rattus norvegicus, UniProt Q9QYN8)
Sequence (Q9QYN8 whole entry): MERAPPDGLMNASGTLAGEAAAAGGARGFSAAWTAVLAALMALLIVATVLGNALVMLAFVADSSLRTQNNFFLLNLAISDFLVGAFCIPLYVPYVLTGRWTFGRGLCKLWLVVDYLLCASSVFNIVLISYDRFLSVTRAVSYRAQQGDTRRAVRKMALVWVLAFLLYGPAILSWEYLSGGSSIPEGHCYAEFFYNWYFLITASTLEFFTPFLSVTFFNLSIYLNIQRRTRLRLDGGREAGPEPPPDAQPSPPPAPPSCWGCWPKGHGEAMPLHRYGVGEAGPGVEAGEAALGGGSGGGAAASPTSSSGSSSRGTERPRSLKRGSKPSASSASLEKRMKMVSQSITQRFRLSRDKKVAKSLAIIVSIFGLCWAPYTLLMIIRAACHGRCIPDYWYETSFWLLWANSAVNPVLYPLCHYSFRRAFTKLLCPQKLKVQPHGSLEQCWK
Experiment: Displacement of [3H]RAMHA from histamine H3 receptor in rat brain membranes
Format: cell membranes
Measured endpoint: Ki (nM)

INSERT INTO assay_data (compound, number) VALUES
  ('c1cc(-c2ccc(CCN3CCCCC3)cc2)ccc1CCN1CCCCC1', 3.98),
  ('CC1CCN(Cc2ccc(-c3ccc(CN4CCC(C)CC4)cc3)cc2)CC1', 15.1),
  ('NCc1ccc(-c2ccc(CN)cc2)cc1', 8710),
  ('c1cc(-c2ccc(CN3CCCCC3)cc2)ccc1CNC1CCCCC1', 9.12),
  ('CC1CC(C)CN(Cc2ccc(-c3ccc(CN4CC(C)CC(C)C4)cc3)cc2)C1 (stereo not drawn)', 676),
  ('c1cc(-c2ccc(CN3CCCCC3)cc2)ccc1CN1CCCCC1', 1.2),
  ('c1cc(CN2CCCCC2)ccc1CN1CCCCC1', 4070),
  ('CN(Cc1ccc(-c2ccc(CN(C)C3CCCCC3)cc2)cc1)C1CCCCC1', 214);

* * *

Target: Histamine H3 receptor (Homo sapiens)
Sequence (Q9Y5N1 whole entry): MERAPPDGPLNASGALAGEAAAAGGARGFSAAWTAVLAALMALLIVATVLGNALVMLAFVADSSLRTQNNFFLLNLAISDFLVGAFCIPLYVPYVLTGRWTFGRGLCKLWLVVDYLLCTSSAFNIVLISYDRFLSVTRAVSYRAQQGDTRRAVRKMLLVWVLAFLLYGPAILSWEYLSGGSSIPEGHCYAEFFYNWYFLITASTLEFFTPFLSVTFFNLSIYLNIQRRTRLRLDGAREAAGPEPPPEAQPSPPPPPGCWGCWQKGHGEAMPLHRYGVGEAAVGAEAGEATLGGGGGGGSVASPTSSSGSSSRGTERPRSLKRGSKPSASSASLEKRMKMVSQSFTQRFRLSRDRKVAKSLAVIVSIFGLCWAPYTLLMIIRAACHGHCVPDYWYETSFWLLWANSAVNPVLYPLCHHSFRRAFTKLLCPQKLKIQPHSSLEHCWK
Assay: Displacement of [3H]RAMHA from human histamine H3 receptor transfected in SK-N-MC cells
Ki under 0.4 µM gets criterion met, anything at or over 0.4 µM gets criterion not met.

INSERT INTO assay_data (molecule, measured_on, class_assignment) VALUES
  ('CC(=O)N1CCN(Cc2ccc(-c3ccc(CN4CCN(C(C)=O)CC4)cc3)cc2)CC1', 'Histamine H3 receptor (Homo sapiens)', 'criterion not met'),
  ('c1cc(-c2ccc(CN3CCOCC3)cc2)ccc1CN1CCOCC1', 'Histamine H3 receptor (Homo sapiens)', 'criterion met'),
  ('c1cc(-c2ccc(CCN3CCCCC3)cc2)ccc1CCN1CCCCC1', 'Histamine H3 receptor (Homo sapiens)', 'criterion met'),
  ('CCCCCNCc1ccc(-c2ccc(CNCCCCC)cc2)cc1', 'Histamine H3 receptor (Homo sapiens)', 'criterion not met'),
  ('NCc1ccc(-c2ccc(CN)cc2)cc1', 'Histamine H3 receptor (Homo sapiens)', 'criterion not met');

* * *

Molecular target: Histamine H3 receptor (Cavia porcellus)
Experiment: Activity at histamine H3 receptor assessed as RAMHA-induced inhibition of electrically-stimulated guinea pig isolated ileum
Type: functional, tissue-based
Conditions: filed as antagonist
Measured endpoint: Activity

INSERT INTO results (compound, result) VALUES
  ('CC1CC(C)CN(Cc2ccc(-c3ccc(CN4CC(C)CC(C)C4)cc3)cc2)C1 (stereo not given)', 'Antagonist'),
  ('CN(Cc1ccc(-c2ccc(CN(C)C3CCCCC3)cc2)cc1)C1CCCCC1', 'Antagonist'),
  ('CC(=O)N1CCN(Cc2ccc(-c3ccc(CN4CCCCC4)cc3)cc2)CC1', 'Antagonist'),
  ('c1cc(CN2CCCCC2)ccc1CN1CCCCC1', 'Antagonist'),
  ('c1cc(-c2ccc(CCN3CCCCC3)cc2)ccc1CCN1CCCCC1', 'Antagonist'),
  ('CC1CCN(Cc2ccc(-c3ccc(CN4CCC(C)CC4)cc3)cc2)CC1', 'Antagonist'),
  ('CN(C)Cc1ccc(-c2ccc(CN(C)C)cc2)cc1', 'Antagonist'),
  ('CC(=O)N1CCN(Cc2ccc(-c3ccc(CN4CCN(C(C)=O)CC4)cc3)cc2)CC1', 'Antagonist'),
  ('c1cc(-c2ccc(CN3CCOCC3)cc2)ccc1CN1CCOCC1', 'Antagonist'),
  ('c1cc(-c2ccc(CNC3CCCCC3)cc2)ccc1CNC1CCCCC1', 'Antagonist'),
  ('O=C1CCCCN1Cc1ccc(-c2ccc(CN3CCCCC3)cc2)cc1', 'Antagonist'),
  ('c1cc(-c2ccc(CN3CCCCC3)cc2)ccc1CN1CCCCC1', 'Antagonist'),
  ('c1cc(-c2ccc(CN3CCCCC3)cc2)ccc1CNC1CCCCC1', 'Antagonist'),
  ('CCCCCNCc1ccc(-c2ccc(CNCCCCC)cc2)cc1', 'Antagonist'),
  ('NCc1ccc(-c2ccc(CN)cc2)cc1', 'Antagonist');
